Data provenance: PubChem BioAssay AID2305

- Tested on: P. falciparum 3D7 growth, pLDH absorbance
- Run description: blood-stage malaria parasite growth potency – strain 3D7, dose response (AID 2305)
Consider the following molecules and their measured pIC50 readings.
Scale for pIC50: -log10 of concentration given in mol/L; no unit attached.

| Molecule | pIC50 |
| --- | --- |
| OC(CNCc1cccc(Oc2ccc(Cl)cc2)c1)c1cc(C(F)(F)F)cc(C(F)(F)F)c1 (centres undefined) | 6.59 |
| CSc1ccc(NC(=O)Nc2cc(C)nc3ccccc23)cc1Br | 6.11 |
| COc1ccc(C(C(=O)NC2CCN(C[C@H](O)c3ccnc4ccc(OC)cc34)CC2)N2CCN(c3ccc([N+](=O)[O-])cc3)CC2)cc1 (some centres undefined) | 6.64 |
| CCn1cnc2c(N3CCCCS3(=O)=O)cc(C(=O)N[C@@H](Cc3ccccc3)[C@H](O)CNC3CCOCC3)cc21 | 6.15 |
| N#Cc1ccccc1C(=O)N(Cc1cncn1Cc1cccc(F)c1)CC1CC1 | 6.14 |

Name the reported pIC50 value associated with the molecule COc1ccc(NC(=O)C=Cc2ccc(Oc3ccccc3Cl)c([N+](=O)[O-])c2)cc1OCCN(C(C)C)C(C)C
6.06

Next entry: O=C(N[C@@H](CC1CCCCC1)C(=O)NCCN1CCCCC1)c1ccc(O)c(-c2cccc(C(F)(F)F)c2)c1
6.08

Next entry: CCNc1cc(C(=O)N[C@@H](Cc2ccccc2)[C@H](O)CNC2(CC)CC2)cc(N2CCCCS2(=O)=O)c1
5.79

Next entry: CS(=O)(=O)c1ccc(CCNCc2ccc(-c3cccc(-c4nc5ccccc5[nH]4)c3)cc2)cc1
6.72

Next entry: COc1nc(NCC(C)C)nc(Oc2ccc(=O)n(Cc3ccccc3)n2)n1
6.20

Next entry: O=C(Nc1ccccc1)Nc1cccc(-c2cc(CNCCc3ccccc3)sc2-c2ccncc2)c1
6.22

Next entry: CCCCCCCc1cc(O)c2c(c1)OC(C)(C)c1ccncc1-2
5.94

Next entry: CCN(CC)Cc1ccc2c(=O)cc(CCc3cccc(F)c3F)n(CC(=O)N(Cc3ccc(-c4ccc(C(F)(F)F)cc4)cc3)C(C)C)c2c1
6.11

Next entry: CCOc1cc(-c2nnc3[nH]c(=O)n(C)c(=O)c3n2)ccc1OC(C)C
6.40
